# System: SN12C
# Measurement Notes: Cytotoxicity against human SN12C cells after 48 hrs by trypan blue dye exclusion assay
# Type: functional
One threshold, 20 nM, splits the recorded GI50 values: lower ones are 1, equal or higher ones are -1.

Inquiry: Strictly below 20 nM in GI50? COc1cc([C@@H]2c3cc4c(cc3[C@H](O)[C@H]3COC(=O)[C@H]23)OCO4)cc(OC)c1OC [PODOFILOX]
Reply text: 1

Inquiry: Strictly below 20 nM in GI50? COc1ccc2c(c1)C(c1cc(OC)c3c(c1)OCO3)C1=C(COC1=O)N2 (stereo not given)
Reply text: -1

Inquiry: Strictly below 20 nM in GI50? COc1ccc2c(c1)OC1=C(C(=O)OC1)C2c1cc(OC)c(OC)c(OC)c1 (stereo not given)
Reply text: -1

Inquiry: Strictly below 20 nM in GI50? COc1cc(OC)cc(C2C3=C(COC3=O)Nc3cc(OC)ccc32)c1 (stereo not given)
Reply text: 1

Inquiry: Strictly below 20 nM in GI50? COc1ccc2c(c1)OC1=C(C(=O)OC1)C2c1cc(OC)c2c(c1)OCCO2 (stereo not given)
Reply text: -1

---

# Tested on: Paracentrotus lividus
# Measurement Notes: Antimitotic activity against Paracentrotus lividus embryo assessed as concentration required to cause 100% cleavage alteration after 2.5 to 6 hrs
# Format: functional
This section presents molecules with their documented EC values.
Number only, in nM; omit the unit.

Please review the entries below; each comes with its answer.
Molecule: COc1cc(OC)cc(C2C3=C(COC3=O)Oc3cc(OC)ccc32)c1 (stereo not given)
Quantitative Readout: 1
--
Molecule: COc1ccc2c(c1)OC1=C(C(=O)OC1)C2c1cc(OC)c(OC)c(OC)c1 (stereo not given)
Quantitative Readout: 5
--
Molecule: COc1cc2c(c(OC)c1OC)C(c1ccccc1)C1=C(COC1=O)O2 (stereo not given)
Quantitative Readout: 2000
--
Molecule: COc1ccc2c(c1)NC1=C(C(=O)OC1)C2c1cc(OC)c(OC)c(OC)c1 (stereo not given)
Quantitative Readout: 50
--
Molecule: COc1ccc2c(c1)NC1=C(C(=O)OC1)C2c1cc(OC)c2c(c1)OCCO2 (stereo not given)
Quantitative Readout: 10

// returns EC for COc1ccc2c(c1)C(c1cc(OC)c(OC)c(OC)c1)C1=C(COC1=O)O2 (stereo not given) with Paracentrotus lividus; value = 100

---

# System: MOLT-4
# Measurement Notes: Cytotoxicity against human MOLT4 cells after 48 hrs by trypan blue dye exclusion assay
# Format: functional
# Test Conditions: MOLT-4, 48 h
Assay Metric: log10(GI50) (log10 of the value in nM)
For clarity, the numbers are log10 values of GI50 expressed in nM.

Please review the entries below; each comes with its answer.
Molecule: COc1ccc2c(c1)OC1=C(C(=O)OC1)C2c1cc(OC)c2c(c1)OCCO2 (stereo not drawn)
Assay Metric: log10(GI50)
Quantitative Readout: 1.91

Molecule: COc1ccc2c(c1)OC1=C(C(=O)OC1)C2c1cc(OC)c2c(c1)OCO2 (stereo not drawn)
Assay Metric: log10(GI50)
Quantitative Readout: 1.81

Molecule: COc1ccc2c(c1)OC1=C(C(=O)OC1)C2c1cc(OC)c(OC)c(OC)c1 (stereo not drawn)
Assay Metric: log10(GI50)
Quantitative Readout: 2.71

log10(GI50) recorded for this molecule, COc1cc([C@@H]2c3cc4c(cc3[C@H](O)[C@H]3COC(=O)[C@H]23)OCO4)cc(OC)c1OC [PODOFILOX] , is 1.00

log10(GI50) recorded for this molecule, COc1cc([C@H]2C3=C(COC3=O)Nc3cc4c(cc32)OCO4)cc2c1OCO2 , is 2.56

log10(GI50) recorded for this molecule, COc1ccc2c(c1)C(c1cc(OC)c3c(c1)OCO3)C1=C(COC1=O)N2 (stereo not drawn) , is 2.76

log10(GI50) recorded for this molecule, COc1ccc2c(c1)NC1=C(C(=O)OC1)C2c1cc(OC)c2c(c1)OCO2 (stereo not drawn) , is 1.11

---

This section presents compounds with their documented log10 GI50 values.
# System: UACC-62
# Measurement Notes: Cytotoxicity against human UACC62 cells after 48 hrs by trypan blue dye exclusion assay
# Type: functional
# Test Conditions: UACC-62, 48 h
For clarity, the numbers are log10 values of GI50 expressed in nM.

Compound: COc1cc([C@H]2C3=C(COC3=O)Nc3cc4c(cc32)OCO4)cc2c1OCO2
Quantitative Readout: 1.68

Compound: COc1ccc2c(c1)OC1=C(C(=O)OC1)C2c1cc(OC)c(OC)c(OC)c1 (stereo not drawn)
Quantitative Readout: 2.75

Compound: COc1ccc2c(c1)C(c1cc(OC)c3c(c1)OCO3)C1=C(COC1=O)N2 (stereo not drawn)
Quantitative Readout: 1.94

Compound: COc1ccc2c(c1)OC1=C(C(=O)OC1)C2c1cc(OC)c2c(c1)OCCO2 (stereo not drawn)
Quantitative Readout: 1.59

Compound: COc1ccc2c(c1)OC1=C(C(=O)OC1)C2c1cc(OC)c2c(c1)OCO2 (stereo not drawn)
Quantitative Readout: 1.54

With those in mind, consider the next compound.
log10 GI50 recorded for this compound, COc1cc([C@@H]2c3cc4c(cc3[C@H](O)[C@H]3COC(=O)[C@H]23)OCO4)cc(OC)c1OC , is 1.00

---

# Tested on: NCI/ADR-RES
# Measurement Notes: Cytotoxicity against human NCI/ADR-RES cells after 48 hrs by trypan blue dye exclusion assay
# Assay type: functional
This section presents compounds with their documented GI50 values.
Number only, in nM; omit the unit.

Compound: COc1cc([C@H]2C3=C(COC3=O)Nc3cc4c(cc32)OCO4)cc2c1OCO2
Assay Metric: GI50
Quantitative Readout: 103

With those in mind, consider the next compound.
GI50 recorded for this compound, COc1ccc2c(c1)OC1=C(C(=O)OC1)C2c1cc(OC)c2c(c1)OCO2 (stereo not drawn) , is 18.6

---

# System: IGROV-1
# Measurement Notes: Cytotoxicity against human IGROV1 cells after 48 hrs by trypan blue dye exclusion assay
# Format: functional
# Test Conditions: IGROV-1, 48 h
Assay Metric: GI50 (nM)
Number only, in nM; omit the unit.

Compound: COc1ccc2c(c1)OC1=C(C(=O)OC1)C2c1cc(OC)c2c(c1)OCCO2 (stereo not drawn)
GI50 [nM]: 86

With those in mind, consider the next compound.
GI50 recorded for this compound, COc1cc([C@@H]2c3cc4c(cc3[C@H](O)[C@H]3COC(=O)[C@H]23)OCO4)cc(OC)c1OC , is 13.2

---

# Test system: SK-OV-3
# Measurement Notes: Cytotoxicity against human SKOV3 cells after 48 hrs by trypan blue dye exclusion assay
# Type: functional
# Test Conditions: SK-OV-3, 48 h
Assay Metric: GI50 (nM)
Number only, in nM; omit the unit.

Compound: COc1cc([C@H]2C3=C(COC3=O)Nc3cc4c(cc32)OCO4)cc2c1OCO2
GI50 (nM): 155
//
Compound: COc1cc([C@@H]2c3cc4c(cc3[C@H](O)[C@H]3COC(=O)[C@H]23)OCO4)cc(OC)c1OC
GI50 (nM): 10
//
Compound: COc1ccc2c(c1)OC1=C(C(=O)OC1)C2c1cc(OC)c2c(c1)OCO2 (stereo not drawn)
GI50 (nM): 29.3
//
Compound: COc1ccc2c(c1)C(c1cc(OC)c3c(c1)OCO3)C1=C(COC1=O)N2 (stereo not drawn)
GI50 (nM): 318
//
Compound: COc1ccc2c(c1)OC1=C(C(=O)OC1)C2c1cc(OC)c2c(c1)OCCO2 (stereo not drawn)
GI50 (nM): 33.3

GI50 recorded for this compound, COc1ccc2c(c1)OC1=C(C(=O)OC1)C2c1cc(OC)c(OC)c(OC)c1 (stereo not drawn) , is 368

GI50 recorded for this compound, COc1ccc2c(c1)NC1=C(C(=O)OC1)C2c1cc(OC)c2c(c1)OCO2 (stereo not drawn) , is 14.6

---

# Tested on: IGROV-1
# Measurement Notes: Cytotoxicity against human IGROV1 cells after 48 hrs by trypan blue dye exclusion assay
# Type: functional
# Test Conditions: IGROV-1, 48 h
One threshold, 60 nM, splits the recorded GI50 values: lower ones are Criterion met, equal or higher ones are Criterion not met.

Field: example entries. Status: answers known.
Compound: COc1cc([C@H]2C3=C(COC3=O)Nc3cc4c(cc32)OCO4)cc2c1OCO2
Discrete Label: Criterion not met
//
Compound: COc1ccc2c(c1)NC1=C(C(=O)OC1)C2c1cc(OC)c2c(c1)OCO2 (stereo not given)
Discrete Label: Criterion met
//
Compound: COc1ccc2c(c1)C(c1cc(OC)c3c(c1)OCO3)C1=C(COC1=O)N2 (stereo not given)
Discrete Label: Criterion not met
//
Compound: COc1ccc2c(c1)OC1=C(C(=O)OC1)C2c1cc(OC)c2c(c1)OCO2 (stereo not given)
Discrete Label: Criterion not met

Alright, here's another compound for you.
Inquiry: Strictly below 60 nM in GI50? COc1ccc2c(c1)OC1=C(C(=O)OC1)C2c1cc(OC)c(OC)c(OC)c1 (stereo not given)
Reply text: Criterion not met
